testSystem: Tyrosine-protein kinase Lyn (Homo sapiens);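 note: mean inhibition of the LYN B splice variant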
conditionsUsed: at 0.1 µM
Description: GSK_PKIS: LYN B (splice variant) mean inhibition at 0.1 uM [Nanosyn]

compound	testSystem	inhibition / %
O=C(O[C@H]1CN[C@H](C#Cc2cc3ncnc(Nc4ccc5c(cnn5Cc5ccccc5)c4)c3s2)C1)N1CCOCC1	Tyrosine-protein kinase Lyn (Homo sapiens)	1.54
NS(=O)(=O)c1ccc(N/N=C2\C(=O)Nc3cccc(CCc4ccncc4)c32)cc1	Tyrosine-protein kinase Lyn (Homo sapiens)	2.69
O=C1Nc2ccccc2/C1=C1\CCc2cc(O)ccc21	Tyrosine-protein kinase Lyn (Homo sapiens)	2.38
Cc1cc(O)cc(C)c1/C=C/c1cncc(C(N)=O)c1	Tyrosine-protein kinase Lyn (Homo sapiens)	10.4
CCOc1ccc2c(-c3ccnc(Nc4cc(OC)cc(C(F)(F)F)c4)n3)cnn2n1	Tyrosine-protein kinase Lyn (Homo sapiens)	0.62
COc1cccc(-n2ncc3c(N/N=C/c4ccc(C(=O)NCCN(C)C)cc4)ncnc32)c1	Tyrosine-protein kinase Lyn (Homo sapiens)	51
CC1=C(C(=O)Nc2ccc3[nH]nc(C)c3c2)C(c2ccc(C(F)(F)F)cc2)CC(=O)N1 (centres undefined)	Tyrosine-protein kinase Lyn (Homo sapiens)	1.98
CN1CCC(n2cnc(-c3ccc(F)cc3)c2-c2ccnc(NCCO)n2)CC1	Tyrosine-protein kinase Lyn (Homo sapiens)	3.08
CN(c1ccc(NC(=O)NCCN2CCOCC2)cc1)c1ccnc(Nc2ccc(CS(C)(=O)=O)cc2)n1	Tyrosine-protein kinase Lyn (Homo sapiens)	2.19

* * *

testSystem: Phosphatidylinositol 4-kinase beta (Homo sapiens);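 note: values are mean percent inhibition of PI4K-beta activity, averaged over replicate measurements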
conditionsUsed: at 1 µM
Some compounds, each annotated with its measured inhibition.

moleculeSmiles	testSystem	inhibition / %
COC(=O)Nc1nc2cc(Oc3ccc(NC(=O)Nc4ccccc4)cc3)ccc2[nH]1	Phosphatidylinositol 4-kinase beta (Homo sapiens)	2.26
CCS(=O)(=O)c1ccc(OC)c(Nc2ncc(-c3cccc(F)c3)o2)c1	Phosphatidylinositol 4-kinase beta (Homo sapiens)	-1.64
Cc1cc(O)cc(C)c1/C=C/c1cncc(C(N)=O)c1	Phosphatidylinositol 4-kinase beta (Homo sapiens)	-1.46
O=C(O[C@H]1CN[C@H](C#Cc2cc3ncnc(Nc4ccc5c(ccn5Cc5cc(F)ccc5F)c4)c3s2)C1)N1CCOCC1	Phosphatidylinositol 4-kinase beta (Homo sapiens)	-0.39
O=C(Nc1n[nH]c2nnc(-c3cccnc3)cc12)C1CC1	Phosphatidylinositol 4-kinase beta (Homo sapiens)	3.04
c1cnn2ncc(-c3ccnc(NCCCN4CCOCC4)n3)c2c1	Phosphatidylinositol 4-kinase beta (Homo sapiens)	9.05
COc1cc(N2CCN(C(C)C)CC2)ccc1Nc1nc(Nc2cccc(F)c2C(=O)O)c2cc[nH]c2n1	Phosphatidylinositol 4-kinase beta (Homo sapiens)	0.72
COc1cccc(-n2ncc3c(N/N=C/c4ccc(C(=O)NCCN(C)C)cc4)ncnc32)c1	Phosphatidylinositol 4-kinase beta (Homo sapiens)	5.75
CCN1CCC(C(=O)Nc2n[nH]c3nnc(-c4cccc(F)c4F)cc23)CC1	Phosphatidylinositol 4-kinase beta (Homo sapiens)	-1.04
COc1ccc2ncn(-c3cc(O[C@H](C)c4ccccc4C(F)(F)F)c(C(N)=O)s3)c2c1	Phosphatidylinositol 4-kinase beta (Homo sapiens)	1.85

* * *

inhibition overview
testSystem: Serine/threonine-protein kinase pim-3 (Homo sapiens)
conditionsUsed: at 1 µM
Description: GSK_PKIS: PIM3 mean inhibition at 1 uM [Nanosyn]

moleculeSmiles	testSystem	inhibition [%]
CCOc1ccc2c(-c3ccnc(Nc4cc(OC)cc(C(F)(F)F)c4)n3)cnn2n1	Serine/threonine-protein kinase pim-3 (Homo sapiens)	1.42
CS(=O)(=O)Nc1ccc(-c2ccc3c(NC(=O)C4CC4)n[nH]c3c2)cc1	Serine/threonine-protein kinase pim-3 (Homo sapiens)	2.14
N#Cc1cccc(Nc2ncc(-c3ccccc3)o2)c1	Serine/threonine-protein kinase pim-3 (Homo sapiens)	2.79
Cc1cc(O)cc(C)c1/C=C/c1cncc(C(=O)OC(C)(C)C)c1	Serine/threonine-protein kinase pim-3 (Homo sapiens)	2.22
CN(c1ccc(NC(=O)NCCN2CCOCC2)cc1)c1ccnc(Nc2ccc(CS(C)(=O)=O)cc2)n1	Serine/threonine-protein kinase pim-3 (Homo sapiens)	2
COc1cc(N2CCN(C(C)C)CC2)ccc1Nc1nc(Nc2cccc(F)c2C(=O)O)c2cc[nH]c2n1	Serine/threonine-protein kinase pim-3 (Homo sapiens)	5.92
COc1c(C(N)=O)cc(-c2ccc(Cl)cc2)cc1-c1ccc(S(N)(=O)=O)cc1	Serine/threonine-protein kinase pim-3 (Homo sapiens)	0.43
CCn1c(-c2nonc2N)nc2cncc(C(=O)NCCNC)c21	Serine/threonine-protein kinase pim-3 (Homo sapiens)	69.3
NC(=O)c1ccc2c(-c3ccnc(NCCCO)n3)c(-c3ccc(F)cc3)nn2c1	Serine/threonine-protein kinase pim-3 (Homo sapiens)	-0.27
N#Cc1ccc2c(-c3ccnc(NC4CC4)n3)c(-c3ccc(F)cc3)nn2c1	Serine/threonine-protein kinase pim-3 (Homo sapiens)	-0.29

* * *

testSystem: Macrophage-stimulating protein receptor (Homo sapiens) (UniProt Q04912);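 note: reported values are the mean percent inhibition of RON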
Sequence (Q04912 25-304 limits assumed): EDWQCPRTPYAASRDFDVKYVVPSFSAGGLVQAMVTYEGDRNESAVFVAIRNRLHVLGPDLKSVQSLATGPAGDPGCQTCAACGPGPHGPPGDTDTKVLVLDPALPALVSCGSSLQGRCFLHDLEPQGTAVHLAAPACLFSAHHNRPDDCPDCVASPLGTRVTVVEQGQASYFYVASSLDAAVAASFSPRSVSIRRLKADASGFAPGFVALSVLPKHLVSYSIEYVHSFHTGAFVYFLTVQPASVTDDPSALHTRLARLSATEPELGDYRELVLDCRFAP
Sequence (Q04912 310-1400 limits assumed): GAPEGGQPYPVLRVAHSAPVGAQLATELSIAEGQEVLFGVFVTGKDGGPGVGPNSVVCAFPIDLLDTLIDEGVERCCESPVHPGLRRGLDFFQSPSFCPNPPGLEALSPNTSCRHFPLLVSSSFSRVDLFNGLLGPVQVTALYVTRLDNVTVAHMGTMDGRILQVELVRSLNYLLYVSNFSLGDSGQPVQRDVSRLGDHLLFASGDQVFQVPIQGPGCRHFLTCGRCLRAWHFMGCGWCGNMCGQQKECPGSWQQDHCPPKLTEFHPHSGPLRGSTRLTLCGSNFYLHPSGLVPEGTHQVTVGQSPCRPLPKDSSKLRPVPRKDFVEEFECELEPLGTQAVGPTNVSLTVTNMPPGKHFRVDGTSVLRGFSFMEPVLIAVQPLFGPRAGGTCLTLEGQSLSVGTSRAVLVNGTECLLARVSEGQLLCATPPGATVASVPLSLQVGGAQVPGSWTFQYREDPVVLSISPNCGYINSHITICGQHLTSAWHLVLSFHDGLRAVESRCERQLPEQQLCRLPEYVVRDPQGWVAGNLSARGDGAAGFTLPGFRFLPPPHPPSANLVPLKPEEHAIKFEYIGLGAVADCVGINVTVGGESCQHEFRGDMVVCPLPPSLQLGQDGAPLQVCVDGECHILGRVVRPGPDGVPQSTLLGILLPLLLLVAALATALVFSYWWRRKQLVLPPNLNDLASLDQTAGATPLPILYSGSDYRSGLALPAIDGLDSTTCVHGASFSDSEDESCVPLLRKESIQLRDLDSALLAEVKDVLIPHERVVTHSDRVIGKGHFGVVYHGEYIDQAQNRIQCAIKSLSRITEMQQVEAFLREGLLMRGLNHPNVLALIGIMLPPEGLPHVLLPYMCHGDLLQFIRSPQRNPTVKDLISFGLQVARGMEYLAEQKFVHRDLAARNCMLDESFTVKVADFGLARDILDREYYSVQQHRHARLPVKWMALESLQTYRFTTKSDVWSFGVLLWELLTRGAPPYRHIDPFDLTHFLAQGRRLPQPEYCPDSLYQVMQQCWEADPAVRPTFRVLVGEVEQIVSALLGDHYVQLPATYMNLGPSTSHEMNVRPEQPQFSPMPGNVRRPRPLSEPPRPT
conditionsUsed: at 0.1 µM
Listed molecules paired with reported inhibition

molecule	testSystem	inhibition / %
CS(=O)(=O)Nc1ccc(-c2cc(-c3ccccc3)cc(C(N)=O)c2N)cc1	Macrophage-stimulating protein receptor (Homo sapiens) (UniProt Q04912)	-0.02
N#Cc1ccc2c(-c3ccnc(NC4CC4)n3)c(-c3ccc(F)cc3)nn2c1	Macrophage-stimulating protein receptor (Homo sapiens) (UniProt Q04912)	2.34
Cc1c2ccc(N(C)c3ccnc(Nc4cccc(S(N)(=O)=O)c4)n3)cc2nn1C	Macrophage-stimulating protein receptor (Homo sapiens) (UniProt Q04912)	2.6
CC1=C(C(=O)Nc2ccc3[nH]ncc3c2)C(c2ccc(F)cc2)N=C(c2ccc(C(F)(F)F)nc2)N1 (stereo unspecified)	Macrophage-stimulating protein receptor (Homo sapiens) (UniProt Q04912)	7.5
CCN1CCC(C(=O)Nc2n[nH]c3nnc(-c4cccc(F)c4F)cc23)CC1	Macrophage-stimulating protein receptor (Homo sapiens) (UniProt Q04912)	0.53
COc1cc(Nc2ncc(-c3ccccc3)o2)cc(OC)c1	Macrophage-stimulating protein receptor (Homo sapiens) (UniProt Q04912)	4.66
Fc1ccc(Nc2nccc(-c3c(-c4ccc(C(F)(F)F)cc4)nn4ncccc34)n2)cc1F	Macrophage-stimulating protein receptor (Homo sapiens) (UniProt Q04912)	-2.05
O=C(O[C@H]1CN[C@H](C#Cc2cc3ncnc(Nc4ccc5c(ccn5Cc5cc(F)ccc5F)c4)c3s2)C1)N1CCOCC1	Macrophage-stimulating protein receptor (Homo sapiens) (UniProt Q04912)	-0.04
COc1cc2c(cc1Nc1nc(Nc3cccc(F)c3C(N)=O)c3cc[nH]c3n1)N(C(=O)CN1CCN(C(C)C)CC1)CC2	Macrophage-stimulating protein receptor (Homo sapiens) (UniProt Q04912)	-1.39
CC1=C(C(=O)Nc2ccc3[nH]nc(C)c3c2)C(c2ccc(C(F)(F)F)cc2)CC(=O)N1 (stereo unspecified)	Macrophage-stimulating protein receptor (Homo sapiens) (UniProt Q04912)	5.1
Cn1c(-c2nonc2N)nc2cnccc21	Macrophage-stimulating protein receptor (Homo sapiens) (UniProt Q04912)	5.57
CCS(=O)(=O)c1ccc(OC)c(Nc2ncc(-c3cccc(C(C)=O)c3)o2)c1	Macrophage-stimulating protein receptor (Homo sapiens) (UniProt Q04912)	-2.76
CCOc1ccc2c(-c3ccnc(Nc4cc(OC)cc(C(F)(F)F)c4)n3)cnn2n1	Macrophage-stimulating protein receptor (Homo sapiens) (UniProt Q04912)	8
COc1cc(N2CCN(C(C)C)CC2)ccc1Nc1nc(Nc2cccc(F)c2C(=O)O)c2cc[nH]c2n1	Macrophage-stimulating protein receptor (Homo sapiens) (UniProt Q04912)	0.36
O=C(O[C@H]1CN[C@H](C#Cc2cc3ncnc(Nc4ccc(OCc5cccc(F)c5)c(Cl)c4)c3s2)C1)N1CCOCC1	Macrophage-stimulating protein receptor (Homo sapiens) (UniProt Q04912)	1.25
Cc1cc(O)cc(C)c1/C=C/c1cncc(C(=O)OC(C)(C)C)c1	Macrophage-stimulating protein receptor (Homo sapiens) (UniProt Q04912)	8.51
COc1ccc2ncn(-c3cc(O[C@H](C)c4ccccc4C(F)(F)F)c(C(N)=O)s3)c2c1	Macrophage-stimulating protein receptor (Homo sapiens) (UniProt Q04912)	-2.2
NS(=O)(=O)c1cccc(N/C=C2\C(=O)Nc3ccccc32)c1	Macrophage-stimulating protein receptor (Homo sapiens) (UniProt Q04912)	-4.07
COc1c(C(N)=O)cc(-c2ccc(Cl)cc2)cc1-c1ccc(S(N)(=O)=O)cc1	Macrophage-stimulating protein receptor (Homo sapiens) (UniProt Q04912)	6.88
c1ccc(-c2n[nH]cc2-c2ccnc(-c3ccc(OCCn4ccnc4)cc3)c2)nc1	Macrophage-stimulating protein receptor (Homo sapiens) (UniProt Q04912)	3.8
COc1cccc(Nc2nccc(-c3cnn4ncccc34)n2)c1	Macrophage-stimulating protein receptor (Homo sapiens) (UniProt Q04912)	6.23
CS(=O)(=O)CCNCc1ccc(-c2ccc3ncnc(Nc4ccc(OCc5ccccc5)cc4)c3c2)o1	Macrophage-stimulating protein receptor (Homo sapiens) (UniProt Q04912)	2.59
COc1ccc(-c2nn3ncccc3c2-c2ccnc(Nc3ccc(F)c(F)c3)n2)cc1	Macrophage-stimulating protein receptor (Homo sapiens) (UniProt Q04912)	1.18
CN(c1ccc(NC(=O)NCCN2CCOCC2)cc1)c1ccnc(Nc2ccc(CS(C)(=O)=O)cc2)n1	Macrophage-stimulating protein receptor (Homo sapiens) (UniProt Q04912)	4.51
Cc1nnc(-c2cccc(-c3ccc(C(=O)NCC4CC4)cc3)c2)o1	Macrophage-stimulating protein receptor (Homo sapiens) (UniProt Q04912)	3.19
COc1cccc(-n2ncc3c(N/N=C/c4ccc(C(=O)NCCN(C)C)cc4)ncnc32)c1	Macrophage-stimulating protein receptor (Homo sapiens) (UniProt Q04912)	28.8
Nc1nccc(-c2c(-c3ccc(F)cc3)ncn2C2CCNCC2)n1	Macrophage-stimulating protein receptor (Homo sapiens) (UniProt Q04912)	7.21
CCn1c(-c2nonc2N)nc2cncc(C(=O)NCCNC)c21	Macrophage-stimulating protein receptor (Homo sapiens) (UniProt Q04912)	1.51
O=C1Nc2ccccc2/C1=C1\CCc2cc(O)ccc21	Macrophage-stimulating protein receptor (Homo sapiens) (UniProt Q04912)	5.94
O=C(Nc1n[nH]c2nnc(-c3cccnc3)cc12)C1CC1	Macrophage-stimulating protein receptor (Homo sapiens) (UniProt Q04912)	-2.07
CC(C)c1ccc(-c2cc(-c3c[nH]nc3-c3ccccn3)ccn2)cc1	Macrophage-stimulating protein receptor (Homo sapiens) (UniProt Q04912)	-5.99
CS(=O)(=O)CCNCc1ccoc1-c1ccc2ncnc(Nc3ccc(OCc4ccccc4)cc3)c2c1	Macrophage-stimulating protein receptor (Homo sapiens) (UniProt Q04912)	1.78
COc1ccc(Nc2ncc(-c3ccccc3)o2)cc1OC	Macrophage-stimulating protein receptor (Homo sapiens) (UniProt Q04912)	-0.4
COC(=O)Nc1nc2ccc(Oc3ccc(NC(=O)Nc4cc(C(F)(F)F)ccc4F)cc3)cc2s1	Macrophage-stimulating protein receptor (Homo sapiens) (UniProt Q04912)	1.92
CS(=O)(=O)Nc1ccc(-c2ccc3c(NC(=O)C4CC4)n[nH]c3c2)cc1	Macrophage-stimulating protein receptor (Homo sapiens) (UniProt Q04912)	1.04
CC1(C)CC(n2cnc(-c3ccc(F)cc3)c2-c2ccnc(N)n2)CC(C)(C)N1	Macrophage-stimulating protein receptor (Homo sapiens) (UniProt Q04912)	2.97

Source listed as ChEMBL document CHEMBL1961873.
